system_under_test: Carbonic anhydrase 2 (Homo sapiens)
reported_property: IC50

Q: Which measured IC50 value corresponds to O=c1cc(Cn2c[n+](CCCCn3c[n+](Cc4cc(=O)oc5cc(O)ccc45)c4ccccc43)c3ccccc32)c2ccc(O)cc2o1 ?
A: 94 µM

###

# IC50 measurements, system: Carbonic anhydrase 1 (Homo sapiens)
# Sequence (P00915 whole entry): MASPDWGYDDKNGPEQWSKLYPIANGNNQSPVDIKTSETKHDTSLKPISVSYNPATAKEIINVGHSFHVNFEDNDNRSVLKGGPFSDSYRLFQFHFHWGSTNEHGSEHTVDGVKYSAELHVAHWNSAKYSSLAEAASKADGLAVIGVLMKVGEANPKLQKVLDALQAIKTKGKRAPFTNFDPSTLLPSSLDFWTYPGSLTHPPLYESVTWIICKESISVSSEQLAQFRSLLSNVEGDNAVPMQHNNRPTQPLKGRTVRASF
All answers are understood in µM, so give the number only.

>  <compound_smiles>
O=c1cc(Cn2c[n+](CCCCn3c[n+](Cc4cc(=O)oc5cc(O)ccc45)c4ccccc43)c3ccccc32)c2ccc(O)cc2o1

>  <unit_string>
µM

>  <IC50>
81

$$$$

Shift focus to the following entry.
Q: Any idea what IC50 was measured for O=c1cc(C[n+]2cn(Cc3ccc4ccccc4c3)c3ccccc32)c2ccc(O)cc2o1 ?
A: 5.34
